Tested on: gravid Ae. aegypti
assayProcedure: Egg-laying (contact-mediated) binary choice bioassay
Format: in vivo, Aedes aegypti
testSettings: dose 100 ng in 30 mL water, single female, 72 h
Procedure: Modifications of the olfactory- and contact-mediated bioassays previously described (Trexler J D, Apperson C S, Schal C (1998) J Med Entomol 35:967-976) were used to measure the response of gravid mosquitoes to plant infusions (or bacterial compounds). […] After a 24 h exposure period, eggs laid on the surface of the water in the test and control cups were counted. […]
reportedEndpoint: Treatment, % (eggs in treatment cup) (%)
# number only, unit % dropped from output

Worked cases, Treatment, % (eggs in treatment cup) given:
In [3]: df
Out[3]:
               smilesdata       assayedtarget                      reportedendpoint  numericvalue
0          CCCCCCCCC(=O)O  gravid Ae. aegypti  Treatment, % (eggs in treatment cup)          69.1
1     CCCCCCCCCCCCCC(=O)O  gravid Ae. aegypti  Treatment, % (eggs in treatment cup)          62.1
2  CCCCCCCCCCCCCCCC(=O)OC  gravid Ae. aegypti  Treatment, % (eggs in treatment cup)          60.4
3       CCCCCCCCCCCC(=O)O  gravid Ae. aegypti  Treatment, % (eggs in treatment cup)          47.6
4    CCCCCCCCCCCCCC(=O)OC  gravid Ae. aegypti  Treatment, % (eggs in treatment cup)          51.0
5         CCCCCCCCCC(=O)O  gravid Ae. aegypti  Treatment, % (eggs in treatment cup)          45.8

Please give the measured Treatment, % (eggs in treatment cup) for this compound: CCCCCCCCCCCCCCCC(=O)O
38.2

Any idea what Treatment, % (eggs in treatment cup) was measured for CCCCCCCCCCCCCCCCCC(=O)O ?
58.4

These entries and their values trace back to patent US20100192451A1.
